Assay: Non-nucleoside inhibition of NS5B polymerase in HCV genotype 3a by Taqman probe based RT-PCR analysis
recordedMetric: EC50

>  <compound>
CNC(=O)c1c(-c2ccc(F)cc2)oc2cc(N(C)S(C)(=O)=O)c(-c3ccc4nc(C)n(Cc5ccc(F)cc5F)c(=O)c4c3)cc12

>  <result>
0.9 nM

$$$$
>  <compound>
CNC(=O)c1c(-c2ccc(F)cc2)oc2cc(N(C)S(C)(=O)=O)c(-c3ccc4c(n3)C(=O)N(c3ccc(F)cc3)CO4)cc12

>  <result>
1.5 nM

$$$$
>  <compound>
CNC(=O)c1c(-c2ccc(F)cc2)oc2cc(N(C)S(C)(=O)=O)c(-c3ccc4nnn(C(C)c5ccc(F)cc5)c(=O)c4c3)cc12 (stereo not drawn)

>  <result>
0.8 nM

$$$$
>  <compound>
CNC(=O)c1c(-c2ccc(F)cc2)oc2cc(N(C)S(C)(=O)=O)c(-c3ccc4nc(CNC(C)=O)n(Cc5ccc(F)cc5)c(=O)c4c3)cc12

>  <result>
1.4 nM

$$$$
>  <compound>
CNC(=O)c1c(-c2ccc(F)cc2)oc2cc(N(C)S(C)(=O)=O)c(-c3ccc4nc(C)n([C@H](COC)c5ccc(F)cc5)c(=O)c4c3)cc12

>  <result>
1.6 nM

$$$$
>  <compound>
CNC(=O)c1c(-c2ccc(F)cc2)oc2cc(N(C)S(C)(=O)=O)c(-c3cc(C)c4nnn(Cc5ccc(F)cc5)c(=O)c4c3)cc12

>  <result>
1.4 nM

$$$$
>  <compound>
CNC(=O)c1c(-c2ccc(F)cc2)oc2cc(N(C)S(C)(=O)=O)c(-c3cc4c(=O)n(Cc5ccc(F)cc5)nnc4cc3C)cc12

>  <result>
1.1 nM

$$$$
>  <compound>
CNC(=O)c1c(-c2ccc(F)cc2)oc2cc(N(C)S(C)(=O)=O)c(-c3ccc4nnn(Cc5ccc(F)cc5)c(=O)c4c3)cc12

>  <result>
0.8 nM

$$$$
>  <compound>
CNC(=O)c1c(-c2ccc(F)cc2)oc2cc(N(C)S(C)(=O)=O)c(-c3ccc4nc(C)n(Cc5ccc(F)cc5)c(=O)c4c3)cc12

>  <result>
0.6 nM

$$$$
>  <compound>
CNC(=O)c1c(-c2ccc(F)cc2)oc2cc(N(C)S(C)(=O)=O)c(-c3cc4c(=O)n(Cc5ccc(F)cc5)nnc4cc3F)cc12

>  <result>
1.2 nM

$$$$
>  <compound>
CNC(=O)c1c(-c2ccc(F)cc2)oc2cc(N(C)S(C)(=O)=O)c(-c3cc(OC)c4nnn(Cc5ccc(F)cc5)c(=O)c4c3)cc12

>  <result>
0.7 nM

$$$$
>  <compound>
CNC(=O)c1c(-c2ccc(F)cc2)oc2cc(N(C)S(C)(=O)=O)c(-c3ccc4nc(C)n(Cc5ccc(F)cn5)c(=O)c4c3)cc12

>  <result>
1.7 nM

$$$$
>  <compound>
CNC(=O)c1c(-c2ccc(F)cc2)oc2cc(N(C)S(C)(=O)=O)c(-c3cc4c(=O)n(Cc5ccc(F)cc5)nnc4cc3Cl)cc12

>  <result>
1.5 nM

$$$$

----------
Test: Non-nucleoside inhibition of NS5B polymerase in HCV genotype 4a by Taqman probe based RT-PCR analysis
pEC50: −log10 of the molar value.
pEC50 for assorted compounds

>  <sampleSmiles>
CNC(=O)c1c(-c2ccc(F)cc2)oc2cc(N(C)S(C)(=O)=O)c(-c3cc4c(=O)n(Cc5ccc(F)cc5)nnc4cc3F)cc12

>  <pEC50>
8.92

$$$$
>  <sampleSmiles>
CNC(=O)c1c(-c2ccc(F)cc2)oc2cc(N(C)S(C)(=O)=O)c(-c3ccc4nc(C)n(Cc5ccc(F)cn5)c(=O)c4c3)cc12

>  <pEC50>
8.80

$$$$
>  <sampleSmiles>
CNC(=O)c1c(-c2ccc(F)cc2)oc2cc(N(C)S(C)(=O)=O)c(-c3ccc4nc(CNC(C)=O)n(Cc5ccc(F)cc5)c(=O)c4c3)cc12

>  <pEC50>
8.18

$$$$
>  <sampleSmiles>
CNC(=O)c1c(-c2ccc(F)cc2)oc2cc(N(C)S(C)(=O)=O)c(-c3cc4c(=O)n(Cc5ccc(F)cc5)nnc4cc3Cl)cc12

>  <pEC50>
9.00

$$$$
>  <sampleSmiles>
CNC(=O)c1c(-c2ccc(F)cc2)oc2cc(N(C)S(C)(=O)=O)c(-c3ccc4nc(C)n(Cc5ccc(F)cc5F)c(=O)c4c3)cc12

>  <pEC50>
9.15

$$$$
>  <sampleSmiles>
CNC(=O)c1c(-c2ccc(F)cc2)oc2cc(N(C)S(C)(=O)=O)c(-c3ccc4ncn(Cc5ccccc5)c(=O)c4c3)cc12

>  <pEC50>
8.46

$$$$

----------
Test: Non-nucleoside inhibition of NS5B polymerase C316Y mutant in HCV genotype 1a by Taqman probe based RT-PCR analysis
pEC50: −log10 of the molar value.

>  <sampleSmiles>
CNC(=O)c1c(-c2ccc(F)cc2)oc2cc(N(C)S(C)(=O)=O)c(-c3ccc4nnn(Cc5ccc(F)cc5)c(=O)c4c3)cc12

>  <pEC50>
7.92

$$$$
>  <sampleSmiles>
CNC(=O)c1c(-c2ccc(F)cc2)oc2cc(N(C)S(C)(=O)=O)c(-c3ccc4nc(C)n([C@@H](COC)c5ccc(F)cc5)c(=O)c4c3)cc12

>  <pEC50>
7.52

$$$$
>  <sampleSmiles>
CNC(=O)c1c(-c2ccc(F)cc2)oc2cc(N(C)S(C)(=O)=O)c(-c3ccc4nc(C)n(Cc5ccc(F)cc5)c(=O)c4c3)cc12

>  <pEC50>
8.54

$$$$
>  <sampleSmiles>
CNC(=O)c1c(-c2ccc(F)cc2)oc2cc(N(C)S(C)(=O)=O)c(-c3ccc4nc(C)n(Cc5ccc(F)cc5F)c(=O)c4c3)cc12

>  <pEC50>
8.27

$$$$
>  <sampleSmiles>
CNC(=O)c1c(-c2ccc(F)cc2)oc2cc(N(C)S(C)(=O)=O)c(-c3ccc4nnn([C@H](COC)c5ccc(F)cc5)c(=O)c4c3)cc12

>  <pEC50>
7.74

$$$$
>  <sampleSmiles>
CNC(=O)c1c(-c2ccc(F)cc2)oc2cc(N(C)S(C)(=O)=O)c(-c3cc4c(=O)n(Cc5ccc(F)cc5)nnc4cc3C)cc12

>  <pEC50>
8.21

$$$$

----------
Reported pEC50 by item:
Assay: Non-nucleoside inhibition of NS5B polymerase in HCV genotype 1b by Taqman probe based RT-PCR analysis
pEC50: −log10 of the molar value.

>  <molecule>
CNC(=O)c1c(-c2ccc(F)cc2)oc2cc(N(C)S(C)(=O)=O)c(-c3ccc4nc(C)n(Cc5ccc(F)cn5)c(=O)c4c3)cc12

>  <pEC50>
8.59

$$$$
>  <molecule>
CNC(=O)c1c(-c2ccc(F)cc2)oc2cc(N(C)S(C)(=O)=O)c(-c3ccc4nnn([C@@H](COC)c5ccc(F)cc5)c(=O)c4c3)cc12

>  <pEC50>
8.25

$$$$
>  <molecule>
CNC(=O)c1c(-c2ccc(F)cc2)oc2cc(N(C)S(C)(=O)=O)c(-c3ccc4nc(CNC(C)=O)n(Cc5ccc(F)cc5)c(=O)c4c3)cc12

>  <pEC50>
8.55

$$$$
>  <molecule>
CNC(=O)c1c(-c2ccc(F)cc2)oc2cc(N(C)S(C)(=O)=O)c(-c3ccc4c(n3)C(=O)N(Cc3ccc(F)cc3)CO4)cc12

>  <pEC50>
8.89

$$$$
>  <molecule>
CNC(=O)c1c(-c2ccc(F)cc2)oc2cc(N(C)S(C)(=O)=O)c(-c3cc4c(=O)n(Cc5ccc(F)cc5)nnc4cc3Cl)cc12

>  <pEC50>
8.26

$$$$
>  <molecule>
CNC(=O)c1c(-c2ccc(F)cc2)oc2cc(N(C)S(C)(=O)=O)c(-c3ccc4nnn(Cc5ccccc5)c(=O)c4c3)cc12

>  <pEC50>
8.46

$$$$
>  <molecule>
CNC(=O)c1c(-c2ccc(F)cc2)oc2cc(N(C)S(C)(=O)=O)c(-c3cc(C)c4nnn(Cc5ccc(F)cc5)c(=O)c4c3)cc12

>  <pEC50>
8.48

$$$$
>  <molecule>
CNC(=O)c1c(-c2ccc(F)cc2)oc2cc(N(C)S(C)(=O)=O)c(-c3ccc4nc(C)n([C@H](COC)c5ccc(F)cc5)c(=O)c4c3)cc12

>  <pEC50>
8.96

$$$$
>  <molecule>
CNC(=O)c1c(-c2ccc(F)cc2)oc2cc(N(C)S(C)(=O)=O)c(-c3ccc4nc(C)n(Cc5ccc(F)cc5F)c(=O)c4c3)cc12

>  <pEC50>
9.10

$$$$
>  <molecule>
CNC(=O)c1c(-c2ccc(F)cc2)oc2cc(N(C)S(C)(=O)=O)c(-c3ccc4nc(C)n(Cc5ccc(F)cc5)c(=O)c4n3)cc12

>  <pEC50>
8.80

$$$$
>  <molecule>
CNC(=O)c1c(-c2ccc(F)cc2)oc2cc(N(C)S(C)(=O)=O)c(-c3ccc4nnn(C(C)c5ccc(F)cc5)c(=O)c4c3)cc12 (stereo unspecified)

>  <pEC50>
8.54

$$$$
